Values compiled from paper PMC9405596.

Test: MTT cytotoxicity assay, murine macrophages
Format: cell-based
Details: mouse, RAW 264.7 macrophage cells, RAW 264.7, 48 h, positive control
assay metric: CC50 at 48 h (µg/mL)
Record the value in µg/mL, omitting the unit from your answer.

Find the recorded CC50 at 48 h belonging to CC1(C)[C@@H](O[C@@H]2OC[C@H](O[C@@H]3OC[C@@H](O)[C@H](O)[C@H]3O)[C@H](O[C@H]3O[C@H](CO)[C@@H](O)[C@H](O)[C@H]3O)[C@H]2O[C@@H]2O[C@H](CO)[C@@H](O)[C@H](O)[C@H]2O[C@H]2O[C@H](CO)[C@@H](O)[C@H](O)[C@H]2O)CC[C@]2(C)[C@H]3CCC45OCC6(CC[C@@](C)(C=O)C[C@@H]64)[C@H](O)C[C@@]5(C)[C@]3(C)CC[C@@H]12 (stereo partly shown) [Saponin, reference compound] and report it.
160

---

Tested on: L. mexicana promastigotes
Experiment: MTT viability assay against L. mexicana promastigotes
Type: cell-based, Leishmania mexicana
Conditions: Leishmania mexicana, 48 h, read-out: L. mexicana Promastigote IC50, promastigotes, 48 h, MTT
pIC50 by entry:
Bear in mind: pIC50 is minus log10 of a mol/L concentration; give just that figure.

Quick check: pIC50 on L. mexicana promastigotes, item COc1cccc(C(c2c(C)nn(-c3ccccc3)c2O)c2c(C)nn(-c3ccccc3)c2O)c1 [Compound 2i] ?
5.00

Queued: COc1cc(C(c2c(C)nn(-c3ccccc3)c2O)c2c(C)nn(-c3ccccc3)c2O)cc(OC)c1O [Compound 2m]
4.64

Queued: Cc1nn(-c2ccccc2)c(O)c1C(c1ccc(F)cc1)c1c(C)nn(-c2ccccc2)c1O [Compound 2p]
4.77

Queued: Cc1nn(-c2ccccc2)c(O)c1C(c1cc(O)ccc1[N+](=O)[O-])c1c(C)nn(-c2ccccc2)c1O [Compound 2h]
4.68

Queued: Cc1nn(-c2ccccc2)c(O)c1C(c1ccccc1[N+](=O)[O-])c1c(C)nn(-c2ccccc2)c1O [Compound 2c]
4.77

---

Test: MTT cytotoxicity assay, HepG2
Format: cell-based
Conditions: human, HepG2 cells, HepG2, 72 h, read-out: CC50 HepG2 Hepatocytes
CC50 at 72 h by entry:
Record the value in µM, omitting the unit from your answer.

# count of solved cases: 2
- Cc1nn(-c2ccccc2)c(O)c1C(c1cccc(C(F)(F)F)c1)c1c(C)nn(-c2ccccc2)c1O [Compound 2w]: 26
- Cc1nn(-c2ccccc2)c(O)c1C(c1ccc([N+](=O)[O-])cc1)c1c(C)nn(-c2ccccc2)c1O [Compound 2k]: 15

Now examine the next entry.
Find the recorded CC50 at 72 h belonging to Cc1nn(-c2ccccc2)c(O)c1C(c1ccc(OC(F)(F)F)cc1)c1c(C)nn(-c2ccccc2)c1O [Compound 2s] and report it.
26

---

Assay: MTT cytotoxicity assay, murine macrophages
Assay type: cell-based
Conditions: mouse, RAW 264.7 macrophage cells, RAW 264.7, 48 h
assay metric: CC50 at 48 h (µM)
Record the value in µM, omitting the unit from your answer.

* CSc1ccc(C(c2c(C)nn(-c3ccccc3)c2O)c2c(C)nn(-c3ccccc3)c2O)cc1 [Compound 2u] | 96
* COc1cc(C(c2c(C)nn(-c3ccccc3)c2O)c2c(C)nn(-c3ccccc3)c2O)cc(OC)c1O [Compound 2m] | 286
* Cc1nn(-c2ccccc2)c(O)c1C(c1ccccc1O)c1c(C)nn(-c2ccccc2)c1O [Compound 2a] | 51
* Cc1nn(-c2ccccc2)c(O)c1C(c1ccc(O)cc1O)c1c(C)nn(-c2ccccc2)c1O [Compound 2y] | 170

Find the recorded CC50 at 48 h belonging to Cc1nn(-c2ccccc2)c(O)c1C(c1ccc(C(F)(F)F)cc1)c1c(C)nn(-c2ccccc2)c1O [Compound 2r] and report it.
54

Queued: Cc1nn(-c2ccccc2)c(O)c1C(c1cc(C(F)(F)F)cc(C(F)(F)F)c1)c1c(C)nn(-c2ccccc2)c1O [Compound 2x]
34
